Test system: SN12C renal
protocol: NCI tumour cell line growth inhibition, 48 h
I'd appreciate it if you could supply TGI values for the items below.
Give bare numbers, in µM.

Field: example entries. Status: answers known.
compound	TGI / µM
Cc1cc2cc(Oc3ccnc(Nc4cccc(CS(=O)(=O)NCCN(C)C)c4)n3)ccc2[nH]1	19.2
CC(C)C(OC(=O)c1cc(NC(=S)c2ccccc2)ccc1Cl)C(C)C	39.6
CNC1=C(Br)C(=O)C2=C(C1=O)C1C3=C(C(=O)C=CC3=O)C2c2ccccc21 (stereo not given)	3.21

For each of the items listed, what is its TGI?
1. O=C1C=CC(=O)c2c(O)c(Nc3ccc(OC(F)(F)F)cc3)c(Cl)c(O)c21
2. COC(=O)/C=C\C1C(C(=O)OC)C2(C(=O)OC)CCC1(C(=O)OC)N2 (stereo not given)
3. CCN(CCc1ccc(F)cc1)c1ccc(CO)c(Cl)c1

[1.17, 29.9, 23]

Just for reference, PubChem BioAssay (NCI) is where these values come from.
